# tgt: the molecule itself
# experimentNotes: cryo-EM structure
testReadout: stoichiometry N
Respond using a number only.

What value of stoichiometry N has been reported for the following protein? SpaP (natural protein) MGNDISLIALLAFSTLLPFIIASGTCFVKFSIVFVMVRNALGLQQIPSNMTLNGVALLLSMFVMWPIMHDAYVYFEDEDVTFNDISSLSKHVDEGLDGYRDYLIKYSDRELVQFFENAQLKRQYGEETETVKRDKDEIEKPSIFALLPAYALSEIKSAFKIGFYLYLPFVVVDLVVSSVLLALGMMMMSPVTISTPIKLVLFVALDGWTLLSKGLILQYMDIAT 5
